STUDY TARGET: human GLP-1 receptor (human, UniProt P43220 24-463)
METHOD DESCRIPTION: cell-based or functional assay
Numbered stars: 1 amine (or outer) side, 2 acyl side, 3 side chain; on linkers, the order of the positions; unused ones are H or OH. Square brackets hold non-standard residues; d marks the D form. Side chains are listed from the residue outwards. * marks the point of attachment. C18 diacid = O=C(O)CCCCCCCCCCCCCCCCC(=O)*; γGlu = O=C(O)[C@H](CCC(=O)[*:2])N[*:1]; Chem. 28 = not defined here; AEEA = NCCOCCOCC(=O)O; Aib = CC(C)(N)C(=O)O
Please use yes (1) for hGLP-1R Potency, 1% HSA, EC50 [pM] under 40 pM and no (0) for everything else, ties included.

A record lists Compound 43 (reading uncertain) peptide: H[Aib]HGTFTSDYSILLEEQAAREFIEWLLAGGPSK(Chem. 28)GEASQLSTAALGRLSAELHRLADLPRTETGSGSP-NH2 . Is its hGLP-1R Potency, 1% HSA, EC50 [pM] below 40 pM? no (0)

A record lists Compound 74 (peptide) peptide: Y[Aib]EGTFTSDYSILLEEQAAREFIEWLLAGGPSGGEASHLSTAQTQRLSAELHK([AEEA-AEEA-γGlu-C18 diacid])LATLPRTETGSGSP-NH2 . Is its hGLP-1R Potency, 1% HSA, EC50 [pM] below 40 pM? no (0)

A record lists Compound 57 (reading uncertain) peptide: Y[Aib]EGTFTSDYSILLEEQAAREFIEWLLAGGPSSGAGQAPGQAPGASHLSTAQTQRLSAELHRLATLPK(Chem. 28)TETGSGSP-NH2 . Is its hGLP-1R Potency, 1% HSA, EC50 [pM] below 40 pM? yes (1)

A record lists Compound 93 (peptide) peptide: H[Aib]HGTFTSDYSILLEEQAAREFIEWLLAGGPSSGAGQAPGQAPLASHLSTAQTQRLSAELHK([AEEA-AEEA-γGlu-C18 diacid])LATLPRTETGSGSP-NH2 . Is its hGLP-1R Potency, 1% HSA, EC50 [pM] below 40 pM? yes (1)

A record lists Compound 15 (peptide) peptide: H[Aib]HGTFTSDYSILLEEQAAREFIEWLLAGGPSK([AEEA-AEEA-γGlu-C18 diacid])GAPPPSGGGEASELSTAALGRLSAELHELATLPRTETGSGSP-NH2 . Is its hGLP-1R Potency, 1% HSA, EC50 [pM] below 40 pM? no (0)

A record lists Compound 90 (peptide) peptide: H[Aib]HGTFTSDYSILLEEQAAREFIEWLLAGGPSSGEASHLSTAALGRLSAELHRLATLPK([AEEA-AEEA-γGlu-C18 diacid])TETGSGSP-NH2 . Is its hGLP-1R Potency, 1% HSA, EC50 [pM] below 40 pM? yes (1)

A record lists Compound 55 (reading uncertain) peptide: Y[Aib]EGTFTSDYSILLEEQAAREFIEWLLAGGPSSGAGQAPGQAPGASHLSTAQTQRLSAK(Chem. 28)LHRLATLPRTETGSGSP-NH2 . Is its hGLP-1R Potency, 1% HSA, EC50 [pM] below 40 pM? no (0)

A record lists Compound 68 (peptide) peptide: Y[Aib]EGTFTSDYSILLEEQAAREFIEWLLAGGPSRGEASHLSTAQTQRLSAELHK([AEEA-AEEA-γGlu-C18 diacid])LATLPRTETGSGSP-NH2 . Is its hGLP-1R Potency, 1% HSA, EC50 [pM] below 40 pM? no (0)

Every entry's value here was drawn from patent US20260174875A1.
